target.or.system: SMARCA4-HiBiT HeLa cells (protein which is expressed from the SMARCA4 gene) (Homo sapiens, UniProt P51532)
Construct: protein which is expressed from the SMARCA2 and SMARCA4 genes; host or cells: HeLa (SMARCA4-HiBiT engineered line)
Sequence (P51532 whole entry): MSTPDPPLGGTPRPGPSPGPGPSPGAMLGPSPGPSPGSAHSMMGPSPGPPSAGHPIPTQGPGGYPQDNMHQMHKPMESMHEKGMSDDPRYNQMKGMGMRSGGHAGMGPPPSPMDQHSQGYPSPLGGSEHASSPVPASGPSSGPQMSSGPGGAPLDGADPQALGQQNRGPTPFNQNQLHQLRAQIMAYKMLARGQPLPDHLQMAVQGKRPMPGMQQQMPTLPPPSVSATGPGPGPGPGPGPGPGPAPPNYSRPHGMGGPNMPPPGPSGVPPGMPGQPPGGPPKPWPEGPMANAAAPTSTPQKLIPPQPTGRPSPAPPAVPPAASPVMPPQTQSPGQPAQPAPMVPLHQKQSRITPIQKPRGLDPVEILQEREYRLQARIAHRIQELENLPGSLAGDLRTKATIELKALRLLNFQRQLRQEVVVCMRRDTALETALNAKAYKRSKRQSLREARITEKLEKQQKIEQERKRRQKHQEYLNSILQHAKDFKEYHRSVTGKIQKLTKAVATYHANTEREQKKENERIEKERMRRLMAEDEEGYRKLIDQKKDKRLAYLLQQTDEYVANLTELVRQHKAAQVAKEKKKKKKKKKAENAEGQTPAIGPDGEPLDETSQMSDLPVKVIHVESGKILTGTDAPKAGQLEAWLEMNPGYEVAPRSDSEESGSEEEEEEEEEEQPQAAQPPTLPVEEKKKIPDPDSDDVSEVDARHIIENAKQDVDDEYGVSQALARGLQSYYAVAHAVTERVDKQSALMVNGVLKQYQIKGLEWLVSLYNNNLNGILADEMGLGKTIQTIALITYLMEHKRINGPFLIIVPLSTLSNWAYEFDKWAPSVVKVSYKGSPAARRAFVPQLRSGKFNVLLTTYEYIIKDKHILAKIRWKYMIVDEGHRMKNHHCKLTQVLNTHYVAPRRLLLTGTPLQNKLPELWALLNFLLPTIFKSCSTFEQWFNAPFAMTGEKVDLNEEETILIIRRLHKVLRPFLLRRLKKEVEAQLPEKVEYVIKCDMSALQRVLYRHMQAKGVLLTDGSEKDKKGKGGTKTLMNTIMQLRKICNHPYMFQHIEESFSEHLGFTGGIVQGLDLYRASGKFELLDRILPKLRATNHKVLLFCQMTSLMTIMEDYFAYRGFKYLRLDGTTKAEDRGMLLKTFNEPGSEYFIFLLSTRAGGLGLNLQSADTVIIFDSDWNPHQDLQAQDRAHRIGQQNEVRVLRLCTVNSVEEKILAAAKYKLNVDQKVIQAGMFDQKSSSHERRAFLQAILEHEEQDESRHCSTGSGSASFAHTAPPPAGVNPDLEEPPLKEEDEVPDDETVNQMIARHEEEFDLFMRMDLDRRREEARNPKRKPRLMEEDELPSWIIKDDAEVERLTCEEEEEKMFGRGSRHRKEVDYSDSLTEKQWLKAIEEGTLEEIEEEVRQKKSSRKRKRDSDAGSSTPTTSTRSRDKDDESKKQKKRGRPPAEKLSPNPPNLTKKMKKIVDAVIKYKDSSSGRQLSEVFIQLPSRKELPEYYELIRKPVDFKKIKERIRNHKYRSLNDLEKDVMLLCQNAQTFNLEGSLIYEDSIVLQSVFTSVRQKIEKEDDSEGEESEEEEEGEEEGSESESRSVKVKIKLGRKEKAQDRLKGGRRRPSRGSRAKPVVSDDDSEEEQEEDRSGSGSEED
assay.protocol: SMARCA4 degradation assay (HiBiT-fusion HeLa cell line, 24 h, luminescence)
Assay type: cell-based
Text: SMARCA2 and SMARCA4 Degradation Assay Degradation of protein which is expressed from the SMARCA2 and SMARCA4 genes was monitored using engineered HiBiT-fusion HeLa cell lines from Promega. […] 24-hours post-treatment, protein levels were quantified with the addition of HiBiT lytic buffer, LgBiT protein, and HiBiT substrate, according to manufacturer's specifications. […]
For each entry below, report its DC50 value.

Please review the following examples before continuing.
[
  {
    "compound": "COCC1COCCN1CC#Cc1nccc(N2CCN(c3cc(-c4ccccc4O)nnc3N)CC[C@H]2C)n1 (stereo partly drawn)",
    "DC50": "50 to 500 nM"
  },
  {
    "compound": "CN(C)CC#Cc1nccc(N2CCC3(CC2)CCN(c2cc(-c4ccccc4O)nnc2N)C3)n1",
    "DC50": "> 5000 nM"
  },
  {
    "compound": "CC(C)(C)OC(=O)N1CCC[C@H]1C#Cc1nccc(N2CCCN(c3cc(-c4ccccc4O)nnc3N)CC2)n1",
    "DC50": "50 to 500 nM"
  }
]

For each entry beneath this line, provide reported DC50.
1. Nc1nnc(-c2ccccc2O)cc1N1CC2C1CCN2c1ccnc(C#CCNC(=O)c2cc3ncccn3n2)n1 (stereo not drawn)
2. COC1CCN(CC#Cc2nccc(N3CCCN(c4cc(-c5ccccc5O)nnc4N)CC3)n2)CC1
3. Nc1nnc(-c2ccccc2O)cc1N1CCCN(c2ccnc(C#CCN3CCN(C(=O)C4CC4)CC3)n2)CC1

Result:
["50 to 500 nM", "50 to 500 nM", "500 to 5000 nM"]

====

target.or.system: SMARCA2-HiBiT HeLa cells (protein which is expressed from the SMARCA2 gene) (Homo sapiens)
Construct: protein which is expressed from the SMARCA2 and SMARCA4 genes; host or cells: HeLa (SMARCA2-HiBiT engineered line)
Sequence (P51531 whole entry): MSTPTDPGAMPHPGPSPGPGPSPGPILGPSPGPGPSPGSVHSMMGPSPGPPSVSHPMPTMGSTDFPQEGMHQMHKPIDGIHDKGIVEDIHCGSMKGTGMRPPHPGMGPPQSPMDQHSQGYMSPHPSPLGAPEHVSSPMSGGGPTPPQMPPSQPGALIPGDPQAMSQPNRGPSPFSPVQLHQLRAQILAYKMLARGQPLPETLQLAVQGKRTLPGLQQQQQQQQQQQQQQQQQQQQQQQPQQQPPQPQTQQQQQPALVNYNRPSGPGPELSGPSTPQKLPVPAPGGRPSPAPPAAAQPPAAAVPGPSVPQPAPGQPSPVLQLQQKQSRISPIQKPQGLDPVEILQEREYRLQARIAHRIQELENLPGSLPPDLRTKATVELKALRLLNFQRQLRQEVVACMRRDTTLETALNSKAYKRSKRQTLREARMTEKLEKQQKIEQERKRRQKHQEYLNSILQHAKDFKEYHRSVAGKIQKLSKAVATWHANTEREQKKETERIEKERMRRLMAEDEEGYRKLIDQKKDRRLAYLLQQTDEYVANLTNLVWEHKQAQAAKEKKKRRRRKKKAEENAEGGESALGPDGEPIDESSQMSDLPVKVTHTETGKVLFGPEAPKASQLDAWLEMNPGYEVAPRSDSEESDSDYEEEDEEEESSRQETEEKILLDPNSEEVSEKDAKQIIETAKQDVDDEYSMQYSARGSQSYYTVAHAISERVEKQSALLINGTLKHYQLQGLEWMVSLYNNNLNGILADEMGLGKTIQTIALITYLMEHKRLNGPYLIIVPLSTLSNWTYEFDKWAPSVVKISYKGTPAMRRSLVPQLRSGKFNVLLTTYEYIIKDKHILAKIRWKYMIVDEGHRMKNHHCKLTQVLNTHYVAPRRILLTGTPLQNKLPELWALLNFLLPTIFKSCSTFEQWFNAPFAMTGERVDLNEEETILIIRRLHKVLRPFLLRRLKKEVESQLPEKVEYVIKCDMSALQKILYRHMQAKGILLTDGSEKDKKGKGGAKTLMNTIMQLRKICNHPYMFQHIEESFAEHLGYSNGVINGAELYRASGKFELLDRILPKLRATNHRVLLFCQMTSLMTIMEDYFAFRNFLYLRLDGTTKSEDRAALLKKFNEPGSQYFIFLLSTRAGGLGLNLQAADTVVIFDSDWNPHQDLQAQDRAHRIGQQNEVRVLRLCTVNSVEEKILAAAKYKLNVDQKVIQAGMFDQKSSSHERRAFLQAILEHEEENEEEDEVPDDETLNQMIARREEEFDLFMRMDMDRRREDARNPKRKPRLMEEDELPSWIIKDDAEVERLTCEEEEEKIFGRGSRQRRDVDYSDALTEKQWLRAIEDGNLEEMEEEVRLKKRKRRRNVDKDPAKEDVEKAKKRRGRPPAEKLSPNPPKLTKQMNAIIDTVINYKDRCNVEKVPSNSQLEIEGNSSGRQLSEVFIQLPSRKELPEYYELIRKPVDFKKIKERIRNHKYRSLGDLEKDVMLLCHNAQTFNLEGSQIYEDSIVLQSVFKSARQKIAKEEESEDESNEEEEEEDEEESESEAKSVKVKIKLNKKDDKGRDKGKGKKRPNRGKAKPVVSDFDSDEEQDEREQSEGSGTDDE
assay.protocol: SMARCA2 degradation assay (HiBiT-fusion HeLa cell line, 24 h, luminescence)
Type: cell-based
run.conditions: @ 1 μM
measure.name: SMARCA2 % Degradation @ 1 μM

Please review the following examples before continuing.
[
  {
    "molecule": "CN(C)CC#Cc1nccc(N2CCC3(CC2)CCN(c2cc(-c4ccccc4O)nnc2N)C3)n1 [Compound P-344]",
    "result": "++ (++=30-70%)"
  },
  {
    "molecule": "CN(C)CC#Cc1nccc(N2C3CCC2CN(c2cc(-c4ccccc4O)nnc2N)C3)n1 [Compound P-134]",
    "result": "++ (++=30-70%)"
  },
  {
    "molecule": "Nc1nnc(-c2ccccc2O)cc1N1CCCN(c2ccnc(C#CCN3CCn4c(nnc4C(F)(F)F)C3)n2)CC1 [Compound P-363]",
    "result": "++ (++=30-70%)"
  },
  {
    "molecule": "Nc1nnc(-c2ccccc2O)cc1N1CCCN(c2ccnc(C#CCn3ccc4ccccc43)n2)CC1 [Compound P-151]",
    "result": "++ (++=30-70%)"
  },
  {
    "molecule": "CSCC#Cc1nccc(N2CCCN(c3cc(-c4ccccc4O)nnc3N)CC2)n1 [Compound P-323]",
    "result": "++ (++=30-70%)"
  },
  {
    "molecule": "C[C@@H]1CCN(c2cc(-c3ccccc3O)nnc2N)CCN1c1ccnc(C#CCN2CC3(CCC3(F)F)C2)n1 [Compound P-201]",
    "result": "+++ (+++=>70%)"
  },
  {
    "molecule": "CC(C#Cc1nccc(N2C3CCC2CN(c2cc(-c4ccccc4O)nnc2N)C3)n1)NC(=O)c1cc2ncccn2n1 (stereo not drawn) [Compound P-97]",
    "result": "++ (++=30-70%)"
  },
  {
    "molecule": "Nc1nnc(-c2ccccc2O)cc1N1CCCN(c2ccnc(C#CCN3C4CCC3CC(O)C4)n2)CC1 (stereo not drawn) [Compound P-338]",
    "result": "++ (++=30-70%)"
  },
  {
    "molecule": "Nc1nnc(-c2ccccc2O)cc1N1CC2CC(C1)N2c1ccnc(C#CCN2CC(F)(F)C2)n1 [Compound P-204]",
    "result": "++ (++=30-70%)"
  },
  {
    "molecule": "CC(C)(C)OC(=O)NCC#Cc1nccc(N2CCC3CCC(C2)N3c2cc(-c3ccccc3O)nnc2N)n1 (stereo not drawn) [Compound P-267]",
    "result": "+++ (+++=>70%)"
  }
]

For each entry beneath this line, provide reported SMARCA2 % Degradation @ 1 μM.
1. Cc1c(C(=O)NCC#Cc2nccc(N3CCN(c4cc(-c5ccccc5O)nnc4N)CC3)n2)oc2ccccc12 [Compound P-74]
2. CNC/C=C/c1nccc(N2CCN(c3cc(-c4ccccc4O)nnc3N)CC[C@H]2C)n1 [Compound P-165]

Result:
1. ++ (++=30-70%)
2. +++ (+++=>70%)

For each entry beneath this line, provide reported SMARCA2 % Degradation @ 1 μM.
1. Nc1nnc(-c2ccccc2O)cc1N1CCCN(c2ccnc(C#CCN3CCOC4(CCCC4)C3)n2)CC1 [Compound P-370]
2. Nc1nnc(-c2ccccc2O)cc1N1CC2CN(c3ccnc(C#CCNC(=O)c4cc5ncccn5n4)n3)CC2C1 (stereo not drawn) [Compound P-41]

Result:
+++ (+++=>70%)
++ (++=30-70%)

====

target.or.system: SMARCA4-HiBiT HeLa cells (protein which is expressed from the SMARCA4 gene) (Homo sapiens, UniProt P51532)
Construct: protein which is expressed from the SMARCA2 and SMARCA4 genes; host or cells: HeLa (SMARCA4-HiBiT engineered line)
assay.protocol: SMARCA4 degradation assay (HiBiT-fusion HeLa cell line, 24 h, luminescence)
Format: cell-based
measure.name: DC50

Please review the following examples before continuing.
[
  {
    "compound": "CNC/C=C/c1nccc(N2CCN(c3cc(-c4ccccc4O)nnc3N)CC[C@H]2C)n1 [Compound P-165]",
    "result": "50 to 500 nM"
  },
  {
    "compound": "C[C@@H]1CCN(c2cc(-c3ccccc3O)nnc2N)CCN1c1ccnc(C#C[C@H](O)C2CC2)n1 [Compound P-266]",
    "result": "50 to 500 nM"
  },
  {
    "compound": "C[C@H]1CCN(c2cc(-c3ccccc3O)nnc2N)CCN1c1ccnc(C#CCN(C)C)n1 [Compound P-250]",
    "result": "< 50 nM"
  },
  {
    "compound": "CC(C#Cc1nccc(N2CCN(c3cc(-c4ccccc4O)nnc3N)CC[C@H]2C)n1)N(C)C (some centres unmarked) [Compound P-254]",
    "result": "< 50 nM"
  },
  {
    "compound": "CN(C)CC#Cc1nccc(N2C3CCC2CN(c2cnnc(-c4ccccc4O)c2)C3)n1 [Compound P-381]",
    "result": "> 5000 nM"
  }
]

For each entry beneath this line, provide reported DC50.
1. C[C@@H]1CCN(c2cc(-c3ccccc3O)nnc2N)CCN1c1ccnc(C#CCNC(=O)OC2CC/C=C\CCC2)n1 (some centres unmarked) [Compound P-268]
2. C[C@H]1CN(c2ccnc(C#CCNc3ccn(C)n3)n2)CCN1c1cc(-c2ccccc2O)nnc1N [Compound P-328]
3. C[C@@H]1CCN(c2cc(-c3ccccc3O)nnc2N)CCN1c1ccnc(C#CCN(C)C)c1C#N [Compound P-406]
4. Nc1nnc(-c2ccccc2O)cc1N1CCC2(CCCN(c3ccnc(C#CCNC(=O)c4cc5n(n4)CCC5)n3)C2)CC1 [Compound P-129]
5. CCOc1cc(N2CCCN(c3cc(-c4ccccc4O)nnc3N)CC2)nc(C#CCNC(=O)c2cc3ncccn3n2)n1 [Compound P-124]
6. Nc1nnc(-c2ccccc2O)cc1N1C[C@H]2C[C@@H]1CN2c1ccnc(C#CCNC(=O)c2cc3ncccn3n2)n1 [Compound P-25]
7. NCC#Cc1nccc(N2C3CC2CN(c2cc(-c4ccccc4O)nnc2N)C3)n1 [Compound P-91]
8. C[C@@H]1CCN(c2cc(-c3ccccc3O)nnc2N)CCN1c1ccnc(C#CCN2CC3CCC2CO3)n1 (some centres unmarked) [Compound P-178]

Result:
1: 50 to 500 nM; 2: 50 to 500 nM; 3: 500 to 5000 nM; 4: 50 to 500 nM; 5: 50 to 500 nM; 6: 50 to 500 nM; 7: 500 to 5000 nM; 8: 50 to 500 nM

====

For each entry below, report its inhibition at 1 µM value.
target.or.system: SMARCA4-HiBiT HeLa cells (protein which is expressed from the SMARCA4 gene) (Homo sapiens)
Construct: protein which is expressed from the SMARCA2 and SMARCA4 genes; host or cells: HeLa (SMARCA4-HiBiT engineered line)
assay.protocol: SMARCA4 degradation assay (HiBiT-fusion HeLa cell line, 24 h, luminescence)
Type: cell-based
run.conditions: @ 1 μM

Please review the following examples before continuing.
[
  {
    "molecule": "C[C@@H]1CN(CC#Cc2nccc(N3CCCN(c4cc(-c5ccccc5O)nnc4N)CC3)n2)CCO1 [Compound P-313]",
    "inhibition at 1 µM": "< 30%"
  },
  {
    "molecule": "Cc1cnc(C#CCn2ccnc2)nc1N1CCN(c2cc(-c3ccccc3O)nnc2N)CC[C@H]1C [Compound P-227]",
    "inhibition at 1 µM": "30 to 70%"
  },
  {
    "molecule": "C[C@@H]1CCN(c2cc(-c3ccccc3O)nnc2N)CCN1c1nc(C#CCN2C(=O)CC[C@@H]2C)ncc1F [Compound P-176]",
    "inhibition at 1 µM": "30 to 70%"
  }
]

Shift focus to the following entry.
Q: Could you tell me which inhibition at 1 µM is on file for CNc1cc(N2CCCN(c3cc(-c4ccccc4O)nnc3N)CC2)nc(C#CCNC(=O)c2nn(C)c(C)c2C)n1 [Compound P-141] ?
Result: 30 to 70%

Values from patent US20260265238A1
